- TEST: gradient 5% acetonitrile 3 min, to 50% in 2 min, to 85% in 15 min, held 3 min, 100 µL/min
- TEST CONTEXT: column: Zorbax Extend-C18 2.1 x 50 mm; eluents: water / acetonitrile, 0.1% formic acid
PARAMETER MEASURED: RP-LC retention time (s)
Numeric answer only, unit s assumed.

1) Cc1nn(C(C)C(=O)NCCCN(C)Cc2ccccc2)c(=O)c2c(C)n(-c3ccccc3)nc12 (centres undefined) | 687
2) Cc1nc(CC(=O)Nc2nc(-c3ccccc3)c(C)s2)cs1 | 894
3) COC(=O)Cn1c(C)cc(=O)c2cccc(F)c21 | 549
4) COc1ccc(-c2nc3cnccn3c2Nc2ccc(C(=O)NCc3ccco3)cc2)cc1 | 710
5) O=C(Cn1ncc2c(N3CCN(c4ccccn4)CC3)ncnc21)Nc1cc(F)cc(F)c1 | 634

Problem: Answer with the recorded RP-LC retention time of CN(C)CCCCN1CCc2c(n(C)c3ccccc23)C1=O only.
Solution: 650

Problem: Look up and report measured RP-LC retention time for this entry: Cc1cccc(-n2ccnc2SCC(=O)Nc2nccs2)c1C
Solution: 670

Problem: State its RP-LC retention time: CC(C)N1CCn2cc(S(=O)(=O)Nc3ccc(F)cc3F)cc2C1=O
Solution: 759

----------
- TEST: gradient 5% acetonitrile 3 min, to 50% in 2 min, to 85% in 15 min, held 3 min, 100 µL/min
- TEST CONTEXT: column: Zorbax Extend-C18 2.1 x 50 mm; eluents: water / acetonitrile, 0.1% formic acid
Criterion: RP-LC retention time strictly under 700 s. Met: Fulfilled. Not met: Not fulfilled.

1) Cc1ccc(NC(=O)N2CCCC2c2nc(-c3ccccc3)no2)cc1 (stereo not given) | Not fulfilled

Problem: # strict comparison: is reported RP-LC retention time < 700 s? input = COc1ccc(N/C=C2\C(=O)CCc3c2oc2cc(Cl)c(O)c(Cl)c32)cc1
Solution: Not fulfilled

Problem: Is RP-LC retention time strictly under 700 s for the entry CNS(=O)(=O)c1cccnc1Nc1cccc(C(C)C)c1 ?
Solution: Not fulfilled

Problem: Strictly below 700 s: is that where RP-LC retention time of CC(=O)N1CCC(N2C(=O)C3(CCCC3)C2c2scnc2C)CC1 (stereo not given) sits?
Solution: Fulfilled

Problem: Strictly below 700 s: is that where RP-LC retention time of COC(=O)c1ccc(N2C=C(C#N)S(=O)(=O)c3c(F)cccc32)cc1 sits?
Solution: Not fulfilled

Problem: Decide: RP-LC retention time of CN(C)c1ccc(CCNC(=O)c2cccc(C(F)(F)F)c2)cc1 strictly below 700 s?
Solution: Fulfilled

----------
- TEST: gradient 5% acetonitrile 3 min, to 50% in 2 min, to 85% in 15 min, held 3 min, 100 µL/min
- TEST CONTEXT: column: Zorbax Extend-C18 2.1 x 50 mm; eluents: water / acetonitrile, 0.1% formic acid
A collection of compounds and their measured RP-LC retention time
Please reply with the bare figure in s and do not write the unit itself.

Before answering, review these 3 worked examples.
1) CCn1c(C(=O)N2CCN(c3cccc(C)c3)C(C)C2)cc2sccc21 (centres undefined) | 1050
2) Cc1ccc(-c2ccc3nnc(CCC(=O)NCc4ccccc4C(F)(F)F)n3n2)cc1 | 794
3) CC(C)(C)c1ccc(-c2noc(Cn3c(=O)n(Cc4ccccc4)c(=O)c4sccc43)n2)cc1 | 1330

Problem: Using the record for COc1ccc(-c2ncccc2CNS(=O)(=O)c2cccc(OC)c2)cc1 , state its measured RP-LC retention time.
Solution: 670

Problem: Give the reported RP-LC retention time for this compound. O=C(c1ccc(F)c(Cl)c1)N1CCN=C1N1CCCCC1
Solution: 673

Problem: Supply recorded RP-LC retention time for NC[C@@](O)(c1ccc(Cl)cc1)c1ccc(-c2cn[nH]c2)cc1 here.
Solution: 678

Problem: Supply RP-LC retention time value. Item: Cc1ccc(-c2cnc(N3CCCC(C(=O)NCc4ccc5c(c4)OCO5)C3)nc2)cc1 (centres undefined)
Solution: 1060

Problem: Fill in RP-LC retention time for record O=C(Nc1cc(F)ccc1F)N1CCc2nc(-c3ccc(F)cc3)ncc2C1
Solution: 985

Problem: Look up RP-LC retention time of COc1ccc(S(=O)(=O)N2CCC3(CC2)CC(C)(O)CCO3)cc1OC (centres undefined) and report it.
Solution: 612

Taken from the METLIN SMRT retention time set (Domingo-Almenara et al. 2019).
